Molecular target: E3 peptide
Sequence (as listed by the source): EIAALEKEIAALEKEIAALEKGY
Assay: Fluorescence titration of K3-b1b3 beacon with E3 peptide
Assay type: binding
Settings: curve fitting, titration of 10 nM beacon; read-out: Kd value for binding between K3-b1b3 beacon and E3 peptide
pKd: −log10 of the molar value.
READOUT_LABEL: pKd

INSERT INTO results (substance, assay_target, endpoint_value) VALUES
  ('K ICALKAK IAALKAK ICALKAGY (SEQ ID NO: 12) with two 6-TAMRA fluorophores attached at the cysteines via maleimide [K3-b1b3 beacon]', 'E3 peptide', 6.13);
